B1: OR4K15 (parent)
chain: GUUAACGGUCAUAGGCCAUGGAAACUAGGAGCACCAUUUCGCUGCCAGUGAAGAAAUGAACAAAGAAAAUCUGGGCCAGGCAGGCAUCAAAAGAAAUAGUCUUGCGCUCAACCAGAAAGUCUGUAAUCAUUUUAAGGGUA

# Variants of: B1
# METHOD: self-cleavage, relative activity (ratio to wild type); higher = more cleavage; in vitro, sequencing; the parent is a self-cleaving ribozyme
We use 0.5 as the dividing line for self-cleavage: on or above the line is TRUE, below is FALSE.

These solved cases illustrate the format of a correct answer.
Does the variant U38C A111G have recorded self-cleavage that is 0.5 or more?
FALSE

Does the variant A30U U100C have recorded self-cleavage that is 0.5 or more?
TRUE

Now turn to the next variant.
Does the variant A90U A98U have recorded self-cleavage that is 0.5 or more?
TRUE
